- Test system: IGROV1 ovarian
- test.details: NCI tumour cell line growth inhibition, 48 h; in the data active means GI50 below about 0.43 µM; inactive means the rest
Respond using exactly one of the listed classes: active, inactive

Consider the worked cases shown below.
CCCCCCCCCCCCCCNC(=O)Nc1ccc(Cl)c(Cl)c1 | inactive
COCCN(CCOC)c1nc(-c2ccccc2)nc2ccccc12 | inactive
COc1ccc(-c2cc(/C=C/C(=O)c3ccc(N)cc3)[nH]n2)cc1OC | inactive
C#Cc1ccc(-n2c(/C=C/c3ccc(O)cc3)nc3ncccc3c2=O)cc1 | inactive

Enquiry: Could you kindly confirm the outcome this assay logged for O=C(O)CN(CCN(CC(=O)O)CC(=O)O)CC(=O)O.[Mn+2] ?
Return: inactive

Enquiry: // repeat for C=C(CN1CCc2[nH]c3ccc(F)cc3c2C1)c1ccc(C(=O)Nc2ccccc2N)cc1 and report
Return: active

Enquiry: // repeat for CN(C)c1ccc(-c2cc(-c3ccc(Nc4nc(Nc5ccc(Cl)cc5)nc(Nc5ccc(Cl)cc5)n4)cc3)nc(N)c2C#N)cc1 and report
Return: inactive

----------
- System: A498 renal
- test.details: NCI tumour cell line growth inhibition, 48 h
Please enter y where TGI is greater than or equal to 30 µM, and n where it is lower.

CCCCCC(=O)O[C@]1(C(C)=O)CCC2C3CCC4=CC(=O)CC[C@]4(C)C3CC[C@@]21C (stereo partly drawn) | n
S=C1SCN(Cc2ccccc2)CN1Cc1ccco1 | y
Cc1c(C)c2c(c(N)c1C#N)C(=O)N(Cc1ccc(S(N)(=O)=O)cc1)C2=O | y
O=C(Nn1c(-c2ccccc2)nc2ccccc2c1=O)c1ccc(Cl)cc1 | y
N#Cc1ccccc1OCCOc1ccccc1C#N | y

Enquiry: Exam item: decide whether the reported TGI for Cc1cccc2sc(NC(=O)NS(=O)(=O)n3cnc4ccccc43)nc12 is at least 30 µM.
Return: y

----------
- System: XF 498 CNS
- test.details: NCI tumour cell line growth inhibition, 48 h
experimental.readout: TGI

COc1ccc2nc(NC(=O)C(=O)CC(=O)c3ccc([N+](=O)[O-])cc3)sc2c1 | > 100 µM

Enquiry: I have this compound here, CC(C)Cc1ccc(C(C)/C=C2\CCC(CN(C)C)C2=O)cc1 (stereo not given) , and I need its recorded TGI.
Return: 36.5 µM

Enquiry: // repeat for O=C(c1ccccc1)C1(Br)S(=O)(=O)OCCOS1(=O)=O and report
Return: > 100 µM

Enquiry: // repeat for CCOC(=O)C1S(=O)(=O)OCCOS1(=O)=O and report
Return: > 100 µM

Enquiry: // repeat for CC(=O)Nc1ccc(C2CC(c3ccc([N+](=O)[O-])cc3)=Nc3ccccc3S2=O)cc1 (stereo not given) and report
Return: 55.8 µM

----------
- Test system: UACC-62 melanoma
- test.details: NCI tumour cell line growth inhibition, 48 h
# Lookup of reported TGI keyed by entry

C=C1CC[C@@H](CCC2CCC3(OC2)O[C@]2(O)CC[C@@]3(C)OC2(C)C)C(C)(C)[C@H]1C/C=C1\CCOC1=O (stereo not given in full) | > 100 µM
COc1ccc2nc3c(c(N)c2c1)C1CCC3C1(C)C (stereo not given) | 58 µM

Enquiry: I have this molecule here, O=C1c2ccccc2C(=O)c2c(NC3CCCCC3)ccc(Nc3ccc(S(=O)(=O)O)cc3)c21 , and I need its recorded TGI.
Return: > 100 µM

Enquiry: // repeat for O=C(NCCC1CNc2ccccc21)OCc1ccccc1 (stereo not given) and report
Return: > 100 µM

Enquiry: // repeat for Cc1noc(NC(=O)Nc2ccccc2F)c1C#N and report
Return: > 45.4 µM
